- TARGET_OF_ASSAY: human GCN2 full-length protein (Homo sapiens)
- Construct: purchased Carna Biosciences, Inc
- Sequence (Q9P2K8 whole entry): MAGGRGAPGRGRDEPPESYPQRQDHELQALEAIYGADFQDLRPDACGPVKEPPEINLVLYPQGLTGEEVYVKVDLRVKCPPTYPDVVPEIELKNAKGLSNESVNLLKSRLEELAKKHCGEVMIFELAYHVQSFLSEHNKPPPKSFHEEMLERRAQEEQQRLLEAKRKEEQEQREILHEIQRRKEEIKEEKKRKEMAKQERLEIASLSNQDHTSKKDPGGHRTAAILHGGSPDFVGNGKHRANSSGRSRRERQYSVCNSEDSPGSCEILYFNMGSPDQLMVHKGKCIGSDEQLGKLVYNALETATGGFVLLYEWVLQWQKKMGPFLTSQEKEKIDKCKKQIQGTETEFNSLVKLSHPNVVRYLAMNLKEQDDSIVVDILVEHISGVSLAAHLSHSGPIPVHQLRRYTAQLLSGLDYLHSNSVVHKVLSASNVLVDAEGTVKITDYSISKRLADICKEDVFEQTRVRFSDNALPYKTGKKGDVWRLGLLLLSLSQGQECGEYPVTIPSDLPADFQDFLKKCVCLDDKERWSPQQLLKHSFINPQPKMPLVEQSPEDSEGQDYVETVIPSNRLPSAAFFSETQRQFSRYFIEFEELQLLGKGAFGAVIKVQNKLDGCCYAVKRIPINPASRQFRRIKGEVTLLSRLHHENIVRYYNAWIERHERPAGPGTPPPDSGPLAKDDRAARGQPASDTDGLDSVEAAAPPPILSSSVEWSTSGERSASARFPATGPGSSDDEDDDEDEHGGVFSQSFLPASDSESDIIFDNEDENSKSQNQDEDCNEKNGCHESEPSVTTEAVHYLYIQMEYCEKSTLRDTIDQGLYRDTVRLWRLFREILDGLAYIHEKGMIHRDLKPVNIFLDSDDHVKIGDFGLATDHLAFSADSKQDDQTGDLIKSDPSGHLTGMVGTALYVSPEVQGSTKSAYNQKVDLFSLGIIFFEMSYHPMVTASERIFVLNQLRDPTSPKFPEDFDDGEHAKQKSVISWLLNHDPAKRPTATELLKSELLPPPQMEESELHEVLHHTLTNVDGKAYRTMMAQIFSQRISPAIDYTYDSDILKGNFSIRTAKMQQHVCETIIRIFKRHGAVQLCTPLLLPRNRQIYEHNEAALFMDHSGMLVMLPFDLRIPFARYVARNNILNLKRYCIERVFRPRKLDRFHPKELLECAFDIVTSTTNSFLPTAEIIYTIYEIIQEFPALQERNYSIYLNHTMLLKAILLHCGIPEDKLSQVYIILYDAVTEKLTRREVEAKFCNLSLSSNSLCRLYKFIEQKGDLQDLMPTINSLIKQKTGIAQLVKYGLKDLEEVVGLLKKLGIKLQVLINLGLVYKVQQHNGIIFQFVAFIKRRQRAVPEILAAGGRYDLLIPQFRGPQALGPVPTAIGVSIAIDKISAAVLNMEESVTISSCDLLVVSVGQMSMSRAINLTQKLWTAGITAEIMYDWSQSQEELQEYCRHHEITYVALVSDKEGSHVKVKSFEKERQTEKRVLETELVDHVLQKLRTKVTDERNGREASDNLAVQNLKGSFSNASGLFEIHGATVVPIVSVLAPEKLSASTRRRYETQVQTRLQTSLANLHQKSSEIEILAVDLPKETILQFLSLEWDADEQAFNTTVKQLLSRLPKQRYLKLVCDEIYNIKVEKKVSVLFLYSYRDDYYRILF
- MEASUREMENT_DESCRIPTION: GCN2 enzyme inhibition assay (LanthaScreen TR-FRET)
- Format: biochemical
- RECORDED_CONDITIONS: GCN2 enzyme inhibitory activity at compound concentration of 3 μM; Table 3-1; read-out: inhibitory rate
- Protocol: GCN2 enzyme was preserved at -70° C. and used. The GCN2 enzyme inhibitory activity of the test compound was measured by the LanthaScreenTR-FRET (Time Resolved Fluorescence Resonance Energy Transfer) method (manufactured by ThermoFisher). […] Then, GCN2 enzyme solution diluted with the assay buffer was added by 2 μL to each well. […] After standing at room temperature for 1 hr, time decomposition fluorescence measurement was performed on platereader Envision (manufactured by PerkinElmer).
Where a name gives a salt, the structure may show the parent alone.
OBSERVED_PROPERTY: inhibition at 3 µM (%)

{"COMPOUND": "O=S(=O)(Nc1ccc(F)c(C#Cc2cnc(NCCO)nc2)c1F)c1cc(Cl)ccc1Cl [Example 36, TFA Salt]", "inhibition at 3 µM [%]": 99}
{"COMPOUND": "Nc1ncc(C#Cc2c(F)ccc(NS(=O)(=O)c3cc(Cl)ccc3C(F)(F)F)c2F)cn1 [Example 6]", "inhibition at 3 µM [%]": 99}
{"COMPOUND": "Cc1ncc(Cl)cc1S(=O)(=O)Nc1ccc(F)c(C#Cc2cnc(N)nc2)c1F [Example 3]", "inhibition at 3 µM [%]": 99}
{"COMPOUND": "CNc1ncc(C#Cc2c(F)ccc(NS(=O)(=O)c3cc(Cl)ccc3Cl)c2F)cn1 [Example 37, TFA Salt]", "inhibition at 3 µM [%]": 98}
{"COMPOUND": "COc1ncc(Cl)cc1S(=O)(=O)Nc1ccc(F)c(C#Cc2cnc3[nH]ncc3c2)c1F [Example 5]", "inhibition at 3 µM [%]": 99}
{"COMPOUND": "Nc1ncc(C#Cc2c(F)ccc(NS(=O)(=O)c3cc(Cl)ccc3OC(F)(F)F)c2F)cn1 [Example 12]", "inhibition at 3 µM [%]": 99}
{"COMPOUND": "O=S(=O)(Nc1ccc(F)c(C#Cc2cnc3[nH]ncc3c2)c1F)c1cc(Cl)cc(CO)c1Cl [Example 1]", "inhibition at 3 µM [%]": 100}
{"COMPOUND": "O=S(=O)(Nc1ccc(F)c(C#Cc2cnc3[nH]ncc3c2)c1F)c1cc(Cl)ccc1F [Example 26, TFA Salt]", "inhibition at 3 µM [%]": 99}
